Experiment: Brain penetration (plasma and brain concentration, LC-MS/MS)
Assay type: in vivo, mice
Details: male, C57BL/6J, mouse, brain and plasma, ip, 10 mg/kg, mice, 10 mg/kg i.p., 1 h; read-out: Brain/Plasma concentration ratio
PROPERTY MEASURED: Kp at 1 h

c1ccc2c(c1)oc1ccc(Nc3ccnc(NCCCN4CCOCC4)n3)cc12	> 10

----------
Experiment: Brain penetration (plasma and brain concentration, LC-MS/MS)
Format: in vivo, mice
Settings: male, C57BL/6J, mouse, plasma, ip, 20 mg/kg, mice, 20 mg/kg i.p., 1 h post-dosing; read-out: Plasma Calculated Concentration
PROPERTY MEASURED: concentration at 1 h (ng/mL)

c1ccc2c(c1)oc1ccc(Nc3ccnc(NCCCN4CCOCC4)n3)cc12	521

----------
Target: Kir4.1 (Homo sapiens, UniProt P78508)
Construct: host or cells: CHO-K1
Sequence (P78508 whole entry): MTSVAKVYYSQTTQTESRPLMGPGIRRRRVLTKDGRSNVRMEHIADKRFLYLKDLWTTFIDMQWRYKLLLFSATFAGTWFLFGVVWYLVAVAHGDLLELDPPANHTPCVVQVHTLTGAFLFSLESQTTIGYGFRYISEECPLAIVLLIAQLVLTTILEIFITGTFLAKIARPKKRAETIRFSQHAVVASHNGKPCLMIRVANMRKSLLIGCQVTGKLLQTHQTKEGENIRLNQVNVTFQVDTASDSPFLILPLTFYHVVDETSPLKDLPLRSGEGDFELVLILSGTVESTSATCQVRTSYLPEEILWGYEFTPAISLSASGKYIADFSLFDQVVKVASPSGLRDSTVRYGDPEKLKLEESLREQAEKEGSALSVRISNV
Test: Whole-cell patch clamp, Kir4.1 currents in transfected CHO-K1 cells
Format: cell-based
Settings: CHO-K1, 10 μM; -120 mV; read-out: Kir4.1 Inhibition ± SD (%) at 10 μM, -120 mV
PROPERTY MEASURED: inhibition at 10 µM

CCN(CC)CCCNc1nccc(Nc2ccc3oc4ccccc4c3c2)n1 [JX3238]	93.1%
c1ccc2c(c1)ccc1[nH]c3ccc(Nc4ccnc(NCCCN5CCOCC5)n4)cc3c12 [JX3215]	89.8%
c1ccc2c(c1)oc1ccc(Nc3ccnc(NCCCN4CCCCC4)n3)cc12 [JX3244]	97%
O=C(NCCCNc1nccc(Nc2ccc3oc4ccccc4c3c2)n1)N1CCOCC1 [JX3241]	59.5%
c1cc(Nc2ccc3[nH]ccc3c2)nc(NCCCN2CCOCC2)n1 [JX3206]	25.9%
CC1CC(C)CN(CCCNc2nccc(Nc3ccc4oc5ccccc5c4c3)n2)C1 (stereo not drawn) [JX3247]	94.2%
O=C(NCCNc1nccc(Nc2ccc3oc4ccccc4c3c2)n1)N1CCOCC1 [JX3236]	70.8%
CC1(C)c2ccccc2-c2cc(Nc3ccnc(NCCCN4CCOCC4)n3)ccc21 [JX3210]	98.7%
c1ccc2c(c1)oc1ccc(Nc3ccnc(OCCCN4CCOCC4)n3)cc12 [JX3231]	90.5%
c1ccc2c(c1)oc1ccc(NC3CC4(CCN(CCCN5CCOCC5)CC4)C3)cc12 [JX3228]	17.1%
c1ccc2c(c1)oc1ccc(N3CCC4(CC3)CN(CCCN3CCOCC3)C4)cc12 [JX3229]	4.9%
OC(CNc1nccc(Nc2ccc3oc4ccccc4c3c2)n1)CN1CCOCC1 (stereo not drawn) [JX3234]	88.4%

----------
Target: 5-HT2B receptor (Homo sapiens, UniProt P41595)
Sequence (P41595 whole entry): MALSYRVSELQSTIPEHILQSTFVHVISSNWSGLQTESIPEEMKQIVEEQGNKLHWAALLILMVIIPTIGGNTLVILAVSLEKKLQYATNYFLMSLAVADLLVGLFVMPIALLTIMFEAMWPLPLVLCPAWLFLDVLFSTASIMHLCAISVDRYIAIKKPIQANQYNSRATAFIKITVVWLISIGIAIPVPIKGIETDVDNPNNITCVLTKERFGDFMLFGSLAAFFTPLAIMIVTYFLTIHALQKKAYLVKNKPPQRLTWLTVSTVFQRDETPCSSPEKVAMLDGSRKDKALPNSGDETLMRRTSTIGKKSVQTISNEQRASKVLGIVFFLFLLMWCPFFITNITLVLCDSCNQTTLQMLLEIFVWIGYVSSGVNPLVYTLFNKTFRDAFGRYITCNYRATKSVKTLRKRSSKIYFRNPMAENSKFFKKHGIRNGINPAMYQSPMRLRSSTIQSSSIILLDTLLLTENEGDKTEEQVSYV
Experiment: 5-HT2B functional assay (Fluo-4 calcium, FDSS)
Conditions: agonistic effect
PROPERTY MEASURED: EC50

c1ccc2c(c1)oc1ccc(Nc3ccnc(NCCCN4CCOCC4)n3)cc12	> 60 µM

----------
Biological target: hERG (Homo sapiens)
Construct: expressed in transfected cells; host or cells: CHO-hERG
Sequence (Q12809 whole entry): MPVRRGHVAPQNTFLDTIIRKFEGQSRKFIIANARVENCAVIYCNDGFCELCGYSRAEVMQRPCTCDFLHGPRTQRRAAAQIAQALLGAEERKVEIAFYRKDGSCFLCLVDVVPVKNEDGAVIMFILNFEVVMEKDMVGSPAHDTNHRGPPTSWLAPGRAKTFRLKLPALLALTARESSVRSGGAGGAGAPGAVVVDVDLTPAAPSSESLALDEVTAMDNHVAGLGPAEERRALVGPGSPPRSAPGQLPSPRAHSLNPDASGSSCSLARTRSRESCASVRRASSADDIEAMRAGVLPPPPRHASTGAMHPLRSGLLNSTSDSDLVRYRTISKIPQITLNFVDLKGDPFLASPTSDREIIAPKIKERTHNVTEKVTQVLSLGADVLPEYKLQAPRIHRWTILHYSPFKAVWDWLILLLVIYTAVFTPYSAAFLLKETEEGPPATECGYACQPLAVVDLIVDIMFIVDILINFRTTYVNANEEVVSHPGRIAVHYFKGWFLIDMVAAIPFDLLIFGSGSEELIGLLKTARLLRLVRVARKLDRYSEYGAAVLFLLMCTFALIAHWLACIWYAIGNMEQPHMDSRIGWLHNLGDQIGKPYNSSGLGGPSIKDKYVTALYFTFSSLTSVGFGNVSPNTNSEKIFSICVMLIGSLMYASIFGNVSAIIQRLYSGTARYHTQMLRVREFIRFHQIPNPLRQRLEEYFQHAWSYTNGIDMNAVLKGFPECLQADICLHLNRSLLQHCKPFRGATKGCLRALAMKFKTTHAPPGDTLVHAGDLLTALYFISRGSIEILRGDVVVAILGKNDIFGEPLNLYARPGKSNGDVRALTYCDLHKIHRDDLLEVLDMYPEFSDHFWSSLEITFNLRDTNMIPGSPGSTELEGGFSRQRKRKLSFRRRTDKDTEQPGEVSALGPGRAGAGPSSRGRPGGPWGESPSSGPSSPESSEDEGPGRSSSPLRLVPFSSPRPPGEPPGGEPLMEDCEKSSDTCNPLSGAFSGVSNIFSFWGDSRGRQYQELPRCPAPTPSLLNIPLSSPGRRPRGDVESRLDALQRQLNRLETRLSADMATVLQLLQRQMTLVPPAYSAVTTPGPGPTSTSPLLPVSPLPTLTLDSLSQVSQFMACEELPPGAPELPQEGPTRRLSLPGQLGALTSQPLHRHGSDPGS
Test: hERG inhibition (QPatch, CHO-hERG cells)
Format: cell-based
PROPERTY MEASURED: IC50 (µM)

c1ccc2c(c1)oc1ccc(Nc3ccnc(NCCCN4CCOCC4)n3)cc12	1.02

----------
Target: Kir4.1 (Homo sapiens, UniProt P78508)
Construct: host or cells: CHO-K1
Assay: Whole-cell patch clamp, Kir4.1 currents in transfected CHO-K1 cells
Type: cell-based
Conditions: whole-cell patch clamp, CHO cells transiently expressing Kir4.1, −120 mV; read-out: IC50 for Kir4.1 inhibition (−120 mV, inward currents)
pIC50: −log10 of the molar value.
Listing of entries alongside the reported pIC50.
PROPERTY MEASURED: pIC50

CCn1c2ccccc2c2cc(Nc3ccnc(NCCCN4CCOCC4)n3)ccc21 [EHop-016, reference compound]	6.13
c1ccc2c(c1)oc1ccc(Nc3ccnc(NCCCN4CCOCC4)n3)cc12	6.55
